System: NOMO1
method_notes: cell viability relative to DMSO control; higher = less cytotoxic
measurement_setup: HPLM + 10% dialyzed FBS; 48 h; 0.0211 µM
observation_type: cell viability (%)
// units = %; emit number, no label

Some molecules with recorded cell viability:
| molecule | cell viability (%) |
| --- | --- |
| Cl.Cl.Cl.O[C@@H](COc1cccc2ncccc12)CN1CCN([C@@H]2c3ccccc3[C@@H]3[C@H](c4ccccc42)C3(F)F)CC1 | 89.4 |
| CC(NC1=CC=CC=C1)C\2=C\C(=C/N3C(=O)\C=C(/N=C23)N4CCOCC4)C (stereo not drawn) | 105 |
| CC\1=C(C(\N=C(/N1)C2=CC(=NC=C2)Cl)C3=C(F)C=C(Cl)C=C3)/C(=O)NC4=C(F)C=C5[NH]N=CC5=C4 (stereo not drawn) | 116 |

Request: Provide the documented cell viability with NOMO1 as the system for COC1=CC2=NC=CC(=C2C=C1)OC3=CN=C(NC(=O)C/4=C(C)/N(CC(C)(C)O)N(C4=O)C5=CC=CC=C5)C=C3
Response: 101

Request: Recorded cell viability for OC(=O)C1=CC=C(NC2=NC3=C(C\N=C(/C4=CC(=CC=C34)Cl)C5=C(F)C=CC=C5F)C=N2)C=C1 with NOMO1, please?
Response: 122

Request: Lab request: please report cell viability under test system NOMO1 for OC1=CC=C(C=C1)\C2=C\OC3=C(C=CC(=C3)O)C2=O
Response: 119

Request: Observed cell viability on NOMO1 for Cc1ccc(NC(=O)c2ccc(CN3CCN(C)CC3)cc2)cc1Nc1nc(-c2cccnc2)cs1 , please.
Response: 105

Request: Give the reported cell viability for CC1(C)CCC[C@]2(C)[C@H]3CC(=O)O[C@]3(C)CC[C@@H]12 (system: NOMO1).
Response: 114
